TESTED_TARGET: α5-GABAA receptor (α5, β3, γ2 subunits) (Homo sapiens (Human), UniProt P18507+P31644)
Sequence (P31644 32-462): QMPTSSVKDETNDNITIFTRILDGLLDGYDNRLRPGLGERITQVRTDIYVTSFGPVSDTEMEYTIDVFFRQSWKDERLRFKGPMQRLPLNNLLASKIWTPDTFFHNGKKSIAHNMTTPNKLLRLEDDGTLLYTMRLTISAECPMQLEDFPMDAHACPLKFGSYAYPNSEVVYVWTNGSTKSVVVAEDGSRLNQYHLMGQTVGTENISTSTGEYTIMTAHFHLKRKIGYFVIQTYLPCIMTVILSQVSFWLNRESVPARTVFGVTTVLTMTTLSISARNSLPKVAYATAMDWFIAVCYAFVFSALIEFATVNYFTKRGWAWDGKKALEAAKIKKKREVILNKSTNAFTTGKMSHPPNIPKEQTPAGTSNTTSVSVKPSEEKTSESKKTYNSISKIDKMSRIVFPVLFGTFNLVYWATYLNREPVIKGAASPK
Sequence (P28472 26-473 partner): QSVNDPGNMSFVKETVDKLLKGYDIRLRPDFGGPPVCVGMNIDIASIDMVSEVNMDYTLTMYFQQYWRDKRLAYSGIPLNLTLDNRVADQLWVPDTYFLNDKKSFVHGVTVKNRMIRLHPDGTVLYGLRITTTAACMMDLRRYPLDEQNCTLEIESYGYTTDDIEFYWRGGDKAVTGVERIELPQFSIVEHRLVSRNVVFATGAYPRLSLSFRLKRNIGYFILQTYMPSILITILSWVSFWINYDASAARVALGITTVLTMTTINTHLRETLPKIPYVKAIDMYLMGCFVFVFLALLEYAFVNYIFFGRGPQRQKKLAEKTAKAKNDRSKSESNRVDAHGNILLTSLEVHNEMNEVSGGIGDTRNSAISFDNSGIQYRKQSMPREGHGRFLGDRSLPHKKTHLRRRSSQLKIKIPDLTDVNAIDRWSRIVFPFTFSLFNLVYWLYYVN
Sequence (P18507 other isoform, or with tags, fused parts or gaps): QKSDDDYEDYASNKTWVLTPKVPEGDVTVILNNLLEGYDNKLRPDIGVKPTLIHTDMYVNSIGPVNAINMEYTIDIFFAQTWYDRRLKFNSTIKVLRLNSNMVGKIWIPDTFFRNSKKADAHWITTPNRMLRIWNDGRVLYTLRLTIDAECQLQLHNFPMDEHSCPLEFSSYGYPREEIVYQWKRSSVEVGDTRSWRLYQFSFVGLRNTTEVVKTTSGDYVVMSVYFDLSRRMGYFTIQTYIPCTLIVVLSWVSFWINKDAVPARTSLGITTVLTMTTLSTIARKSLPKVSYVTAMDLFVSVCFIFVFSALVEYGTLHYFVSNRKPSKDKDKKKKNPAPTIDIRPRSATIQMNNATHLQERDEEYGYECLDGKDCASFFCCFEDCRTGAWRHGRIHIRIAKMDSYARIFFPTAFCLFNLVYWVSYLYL
ASSAY_REMARKS: Whole cell patch clamp, inverse agonist efficacy in HEK293 cells expressing α5-GABAA receptor
Format: cell-based
TEST_SETTINGS: HEK293, drug 100 nM, GABA 0.05 μM, −60 mV; read-out: Compound inverse agonist efficacy %
PARAMETER: inhibition at 0.1 µM (%)
Reply with just the number (in %).

As a guide, the following entries are already answered.
Cc1nnn(-c2ccc(C(F)F)cc2)c1COc1ccc(N2CCN(CC3CC3)C(=O)C2)nn1	49.2
Cc1nnn(-c2ccc(C(F)F)cc2)c1COc1ccc(N2CCNC(=O)C2)nn1	58.8
Cc1nnn(-c2ccc(C(F)F)cc2)c1COc1ccc(N2CC(=O)N3CCN(C)CC3C2)nn1 (stereo not shown)	55.1
Cc1nnn(-c2ccc(C(F)F)cc2)c1COc1ccc(N2CCN(CCO)C(=O)C2)nn1	44.9
Cc1nnn(-c2ccc(CF)cc2)c1COc1ccc(N2CCN3CCNC(=O)[C@@H]3C2)nn1	47.7

Notebook: Cc1nnn(-c2ccc(C(F)F)cc2)c1COc1ccc(N2CCN3C(C(C)C)CNC(=O)[C@@H]3C2)nn1 (stereo partly shown) , inhibition at 0.1 µM read as 51.9

Summary for this compound, Cc1nnn(-c2ccc(C(F)F)cc2)c1COc1ccc(N2CCN3C4CCCCC4NC(=O)[C@@H]3C2)nn1 (stereo partly shown) : inhibition at 0.1 µM is 60.2

In plain terms, Cc1nnn(-c2ccc(C(F)F)cc2)c1COc1ccc(N2CCN(CC(F)(F)F)C(=O)C2)nn1 has a documented inhibition at 0.1 µM of 44.6

# inhibition at 0.1 µM of Cc1nnn(-c2ccc(C(F)F)cc2)c1COc1ccc(N2CCN3C(=O)CNC(=O)[C@H]3C2)nn1 = 56.1

Form field inhibition at 0.1 µM, entry Cc1nnn(-c2ccc(C(F)F)cc2)c1COc1ccc(N2CC(=O)N[C@H](C(=O)O)C2)nn1 : 49

So, Cc1nnn(-c2ccc(C(F)F)cc2)c1COc1ccc(N2CCN3[C@@H](C2)C(=O)N[C@@H]2CCC[C@@H]23)nn1 ? Its inhibition at 0.1 µM was 48.2

Notebook: Cc1nnn(-c2ccc(C(F)F)cc2)c1COc1ccc(N2CCN3CCN(C4CC4)C(=O)[C@@H]3C2)nn1 , inhibition at 0.1 µM read as 42.6

The compound listed as Cc1nnn(-c2ccc(C(F)F)cc2)c1COc1ccc(N2CC(C(=O)N3CC(C)OC(C)C3)C2)nn1 (stereo not shown) shows inhibition at 0.1 µM equal to 44.3

The recorded inhibition at 0.1 µM for entry COCCN1CCN(c2ccc(OCc3c(C)nnn3-c3ccc(C(F)F)cc3)nn2)CC1=O equals 46.4

For this compound ( CCNC(=O)C1CN(c2ccc(OCc3c(C)nnn3-c3ccc(C(F)F)cc3)nn2)C1 ), measured inhibition at 0.1 µM is 52.2

// Cc1nnn(-c2ccc(C(F)F)cc2)c1COc1ccc(N2CC(C(=O)N3CC4CC3CO4)C2)nn1 (stereo not shown) : inhibition at 0.1 µM value = 44.2

Reported inhibition at 0.1 µM of Cc1nnn(-c2ccc(C(F)F)cc2)c1COc1ccc(N2CCN(CCCc3ccc(C#N)cc3)C(=O)C2)nn1 : 69

Consider Cc1nnn(-c2ccc(C(F)F)cc2)c1COc1ccc(N2CC(C(=O)NC3COC3)C2)nn1 . Its measured inhibition at 0.1 µM is 50.8

response.value for Cc1nnn(-c2ccc(C(F)F)cc2)c1COc1ccc(N2CCN(CCN)C(=O)C2)nn1 (field: inhibition at 0.1 µM) = 50.1

In plain terms, Cc1nnn(-c2ccc(C(F)F)cc2)c1COc1ccc(N2CCN3CC(c4cnn(C)c4)NC(=O)[C@@H]3C2)nn1 (single isomer, unassigned) has a documented inhibition at 0.1 µM of 47.6

For reference, reported inhibition at 0.1 µM for Cc1nnn(-c2ccc(C(F)F)cc2)c1COc1ccc(N2CCN3CCNC(=O)[C@@H]3C2)nn1 stands at 50.9

The compound identified as Cc1nnn(-c2ccc(F)cn2)c1COc1ccc(N2CCNC(=O)C2)nn1 registered its inhibition at 0.1 µM at 41.3
